- ASSAYED TARGET: Aurora kinase A (Homo sapiens, UniProt O14965)
- Sequence (O14965 whole entry): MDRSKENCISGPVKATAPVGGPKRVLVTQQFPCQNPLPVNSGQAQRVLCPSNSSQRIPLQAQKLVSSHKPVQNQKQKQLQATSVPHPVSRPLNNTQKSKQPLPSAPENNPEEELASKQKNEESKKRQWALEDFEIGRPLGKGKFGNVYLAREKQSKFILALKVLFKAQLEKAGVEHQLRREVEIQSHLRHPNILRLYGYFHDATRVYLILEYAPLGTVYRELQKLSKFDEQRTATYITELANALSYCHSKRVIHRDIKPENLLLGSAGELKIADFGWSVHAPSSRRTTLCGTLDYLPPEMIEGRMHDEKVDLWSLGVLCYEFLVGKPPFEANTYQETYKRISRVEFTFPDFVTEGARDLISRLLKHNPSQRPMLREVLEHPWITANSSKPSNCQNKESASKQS
- RUN DESCRIPTION: Inhibition of recombinant Aurora A (unknown origin) using TAMRA-PKAtide as substrate after 30 mins by fluorescence polarization assay
pIC50: −log10 of the molar value.
OUTCOME MEASURE: pIC50

[
  {
    "STRUCTURE": "CCS(=O)(=O)Nc1cc(C(C)C)c2sc(NC(=O)NC)c(C(N)=O)c2c1",
    "pIC50": 7.62
  }
]

I. CC(C)c1cc(NS(=O)(=O)c2ccccc2)cc2c(C(N)=O)c(NC(=O)C3CC3)sc12
II. CNC(=O)Nc1sc2c(C(C)C)cc(NS(=O)(=O)c3cccs3)cc2c1C(N)=O
[Q] Looking at I and II , which one comes out lower in pIC50 terms? Answer by stating the label of the chosen item.
[A] I
(I: 6.08, II: 7.49)

1. CNC(=O)Nc1sc2c(C(C)C)cc(NS(=O)(=O)c3ccn(C)n3)cc2c1C(N)=O
2. CNC(=O)Nc1sc2c(C(C)C)cc(NS(=O)(=O)c3ccccc3)cc2c1C(N)=O
[Q] In terms of reported pIC50, does 1 or 2 have the smaller number? Kindly give the label for the entry you pick.
[A] 2
(2: 7.43, 1: 8.30)

====

- RUN DESCRIPTION: Solubility of the compound in phosphate buffer of pH 7.4 after 24 hrs by RP-HPLC analysis
- Format: physicochemical
- CONDITION NOTES: phosphate buffer, pH 7.4
OUTCOME MEASURE: solubility at 24 h (µM)

Record excerpt, results attached:
[
  {
    "STRUCTURE": "CNC(=O)Nc1sc2c(C(C)C)cc(NS(=O)(=O)c3cccs3)cc2c1C(N)=O",
    "solubility at 24 h [µM]": 1.9
  },
  {
    "STRUCTURE": "CNC(=O)Nc1sc2c(C(C)C)cc(NS(=O)(=O)c3cccc(C)c3)cc2c1C(N)=O",
    "solubility at 24 h [µM]": 3.6
  }
]

a. CNC(=O)Nc1sc2c(C)cc(NS(=O)(=O)c3cccs3)cc2c1C(N)=O
b. O=C(O)c1ccc(Nc2ncc3c(n2)-c2ccc(Cl)cc2C(c2c(F)cccc2F)=NC3)cc1
[Q] Return label of the item with the larger solubility at 24 h. Candidates: a , b . To answer, give the label that identifies your chosen option.
[A] b
(b: 98.2 µM, a: 12.8 µM)

====

- RUN DESCRIPTION: Solubility of the compound in phosphate buffer of pH 2 after 24 hrs by RP-HPLC analysis
- Assay type: physicochemical
OUTCOME MEASURE: solubility at 24 h (µM)

Example entries and their recorded answers appear below.
[
  {
    "STRUCTURE": "CNC(=O)Nc1sc2c(C(C)C)cc(NS(=O)(=O)N(C)C)cc2c1C(N)=O",
    "MEASUREMENT UNIT": "µM",
    "solubility at 24 h": 8
  },
  {
    "STRUCTURE": "CNC(=O)Nc1sc2c(C(C)C)cc(NS(=O)(=O)c3cccs3)cc2c1C(N)=O",
    "MEASUREMENT UNIT": "µM",
    "solubility at 24 h": 1.8
  },
  {
    "STRUCTURE": "O=C(O)c1ccc(Nc2ncc3c(n2)-c2ccc(Cl)cc2C(c2c(F)cccc2F)=NC3)cc1",
    "MEASUREMENT UNIT": "µM",
    "solubility at 24 h": 5.8
  }
]

A. CNC(=O)Nc1sc2c(C)cc(NS(=O)(=O)c3ccco3)cc2c1C(N)=O
B. CNC(=O)Nc1sc2c(C(C)C)cc(NS(=O)(=O)c3cccc(C)c3)cc2c1C(N)=O
[Q] Hi! Which is lower in terms of solubility at 24 h, the first one A or the second one B ? Choose, then provide that item's label.
[A] A
(A: 1.1 µM, B: 2.6 µM)

// data source = ChEMBL document CHEMBL4265887
